System: Escherichia coli TOP10
Test: shrunken log2 fold change of peptide-encoding DNA abundance (4.5 h post-induction vs induction); higher = less antimicrobial activity (less host growth inhibition)
Conditions: time post-induction: 4.5 h; library: site-saturation at positions 5, 18, 19, 20

{"columns": ["sequence record", "shrunken log2 fold change"],
 "data": [
  ["RRIRKRPPRLPRPRPRPSMRPRP", 0.915],
  ["RRIRSRPPRLPRPRPRPKVMPRP", 0.0101],
  ["RRIRSRPPRLPRPRPRPMKPPRP", -0.0309],
  ["RRIRIRPPRLPRPRPRPHTVPRP", -0.588],
  ["RRIRKRPPRLPRPRPRPSRRPRP", 0.337],
  ["RRIRYRPPRLPRPRPRPGYPPRP", -0.299],
  ["RRIRMRPPRLPRPRPRPDAFPRP", 1.47],
  ["RRIRSRPPRLPRPRPRPKPAPRP", 0.555],
  ["RRIRGRPPRLPRPRPRPCELPRP", -0.02],
  ["RRIRRRPPRLPRPRPRPLTMPRP", 0.0632],
  ["RRIRIRPPRLPRPRPRPMGGPRP", 0.38],
  ["RRIRWRPPRLPRPRPRPLIDPRP", 0.00313],
  ["RRIRDRPPRLPRPRPRPWFYPRP", -0.0139],
  ["RRIRRRPPRLPRPRPRPARYPRP", 0.317],
  ["RRIRNRPPRLPRPRPRPIVNPRP", 0.0189],
  ["RRIRCRPPRLPRPRPRPKPWPRP", 0.275],
  ["RRIRTRPPRLPRPRPRPWMGPRP", -0.116],
  ["RRIRFRPPRLPRPRPRPHKQPRP", -0.0759],
  ["RRIRYRPPRLPRPRPRPYCYPRP", -1.12],
  ["RRIRYRPPRLPRPRPRPKIEPRP", -0.00459],
  ["RRIRKRPPRLPRPRPRPGNRPRP", 0.143],
  ["RRIRNRPPRLPRPRPRPKVRPRP", -0.0024],
  ["RRIRGRPPRLPRPRPRPHMVPRP", -0.0598],
  ["RRIRNRPPRLPRPRPRPIAFPRP", -0.111],
  ["RRIRSRPPRLPRPRPRPWCEPRP", -0.291],
  ["RRIRHRPPRLPRPRPRPQVDPRP", -0.0221],
  ["RRIRKRPPRLPRPRPRPSWFPRP", -0.168],
  ["RRIRARPPRLPRPRPRPLNEPRP", 0.137],
  ["RRIRQRPPRLPRPRPRPAKNPRP", -0.0935],
  ["RRIRGRPPRLPRPRPRPNVKPRP", 0.292],
  ["RRIRGRPPRLPRPRPRPSNIPRP", 1.1],
  ["RRIRERPPRLPRPRPRPTFTPRP", -0.134]
]}

* * *

Tested on: Escherichia coli TOP10
Experiment: shrunken log2 fold change of peptide-encoding DNA abundance (4.5 h post-induction vs induction); higher = less antimicrobial activity (less host growth inhibition)
Conditions: time post-induction: 4.5 h; library: site-saturation at positions 5, 18, 19, 20

{"columns": ["sequence record", "shrunken log2 fold change"],
 "data": [
  ["RRIRSRPPRLPRPRPRPRFMPRP", -0.211],
  ["RRIRARPPRLPRPRPRPHVKPRP", -0.289],
  ["RRIRGRPPRLPRPRPRPTRAPRP", 1.04],
  ["RRIRHRPPRLPRPRPRPAYPPRP", -0.37],
  ["RRIRFRPPRLPRPRPRPEPFPRP", 0.108],
  ["RRIRKRPPRLPRPRPRPWWWPRP", -0.0108],
  ["RRIRMRPPRLPRPRPRPAMVPRP", 0.501],
  ["RRIRKRPPRLPRPRPRPGEWPRP", -0.0202],
  ["RRIRPRPPRLPRPRPRPMYNPRP", -0.639],
  ["RRIRCRPPRLPRPRPRPGYMPRP", -0.836],
  ["RRIRARPPRLPRPRPRPLKNPRP", -0.127],
  ["RRIRTRPPRLPRPRPRPQIPPRP", -0.235],
  ["RRIRVRPPRLPRPRPRPSENPRP", 0.0175],
  ["RRIRRRPPRLPRPRPRPSEDPRP", 0.0524],
  ["RRIRRRPPRLPRPRPRPIDAPRP", 0.227]
]}

* * *

Tested on: Escherichia coli TOP10
Test: shrunken log2 fold change of peptide-encoding DNA abundance (4.5 h post-induction vs induction); higher = less antimicrobial activity (less host growth inhibition)
Conditions: time post-induction: 4.5 h; library: site-saturation at positions 5, 18, 19, 20
# cutoff 0.2 applies to shrunken log2 fold change; >= gives met, < gives not met

{"columns": ["sequence record", "discrete label"],
 "data": [
  ["RRIRFRPPRLPRPRPRPWKGPRP", "not met"],
  ["RRIRIRPPRLPRPRPRPDMRPRP", "not met"],
  ["RRIRERPPRLPRPRPRPIHKPRP", "not met"],
  ["RRIRVRPPRLPRPRPRPYRRPRP", "not met"],
  ["RRIRQRPPRLPRPRPRPVAPPRP", "met"],
  ["RRIRIRPPRLPRPRPRPQIVPRP", "not met"],
  ["RRIRERPPRLPRPRPRPTSDPRP", "not met"],
  ["RRIRGRPPRLPRPRPRPILDPRP", "met"],
  ["RRIRTRPPRLPRPRPRPPNEPRP", "met"],
  ["RRIRCRPPRLPRPRPRPNEKPRP", "not met"],
  ["RRIRGRPPRLPRPRPRPEHEPRP", "not met"],
  ["RRIRMRPPRLPRPRPRPMLAPRP", "met"],
  ["RRIRTRPPRLPRPRPRPGSRPRP", "met"],
  ["RRIRFRPPRLPRPRPRPWGHPRP", "not met"],
  ["RRIRDRPPRLPRPRPRPIWGPRP", "not met"],
  ["RRIRGRPPRLPRPRPRPHCKPRP", "not met"],
  ["RRIRLRPPRLPRPRPRPLWGPRP", "not met"],
  ["RRIRERPPRLPRPRPRPHDHPRP", "not met"],
  ["RRIRMRPPRLPRPRPRPKRFPRP", "met"],
  ["RRIRLRPPRLPRPRPRPGKRPRP", "met"],
  ["RRIRMRPPRLPRPRPRPDKSPRP", "met"],
  ["RRIRDRPPRLPRPRPRPMYCPRP", "not met"],
  ["RRIRCRPPRLPRPRPRPKWDPRP", "not met"],
  ["RRIRARPPRLPRPRPRPQALPRP", "met"],
  ["RRIRWRPPRLPRPRPRPWQCPRP", "not met"],
  ["RRIRPRPPRLPRPRPRPSQNPRP", "not met"],
  ["RRIRIRPPRLPRPRPRPCCNPRP", "not met"],
  ["RRIRARPPRLPRPRPRPCYQPRP", "not met"],
  ["RRIRQRPPRLPRPRPRPEATPRP", "met"],
  ["RRIRGRPPRLPRPRPRPTFGPRP", "met"],
  ["RRIRGRPPRLPRPRPRPIWHPRP", "met"],
  ["RRIRRRPPRLPRPRPRPGATPRP", "met"]
]}

* * *

System: Escherichia coli TOP10;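 further: peptides expressed intracellularly from a pBAD plasmid library in pooled LB shake-flask culture, induced with 0.3% L-arabinose, DNA abundance read by NGS, three biological replicates, DESeq2 with apeglm shrinkage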
Assay: shrunken log2 fold change of peptide-encoding DNA abundance (4.5 h post-induction vs induction); higher = less antimicrobial activity (less host growth inhibition)
Settings: time post-induction: 4.5 h; library: site-saturation at positions 5, 18, 19, 20
endpoint: shrunken log2 fold change

{"columns": ["sequence record", "endpoint", "obs value"],
 "data": [
  ["RRIRLRPPRLPRPRPRPYVMPRP", "shrunken log2 fold change", -0.194],
  ["RRIRFRPPRLPRPRPRPSDVPRP", "shrunken log2 fold change", 0.0142],
  ["RRIRHRPPRLPRPRPRPAFSPRP", "shrunken log2 fold change", -0.0483],
  ["RRIRARPPRLPRPRPRPFKNPRP", "shrunken log2 fold change", -0.193],
  ["RRIRQRPPRLPRPRPRPDHLPRP", "shrunken log2 fold change", 0.0112],
  ["RRIRMRPPRLPRPRPRPDRPPRP", "shrunken log2 fold change", 0.107],
  ["RRIRKRPPRLPRPRPRPPGGPRP", "shrunken log2 fold change", 0.811],
  ["RRIRSRPPRLPRPRPRPRPIPRP", "shrunken log2 fold change", -0.0533],
  ["RRIRERPPRLPRPRPRPEIFPRP", "shrunken log2 fold change", -0.00264],
  ["RRIRVRPPRLPRPRPRPTAHPRP", "shrunken log2 fold change", 0.246],
  ["RRIRERPPRLPRPRPRPAGAPRP", "shrunken log2 fold change", 0.464],
  ["RRIRSRPPRLPRPRPRPGSDPRP", "shrunken log2 fold change", 0.0314],
  ["RRIRNRPPRLPRPRPRPCDCPRP", "shrunken log2 fold change", 0.0143],
  ["RRIRDRPPRLPRPRPRPTRVPRP", "shrunken log2 fold change", 0.0497],
  ["RRIRYRPPRLPRPRPRPKHNPRP", "shrunken log2 fold change", -0.68]
]}
